Every entry's value here was drawn from ChEMBL document CHEMBL1201862.

System: SF-295
TEST_METHOD_NOTES: NCI tumour cell line growth inhibition, 48 h
The source made the active and inactive calls. No stated cut-off is given here; in the data, active = GI50 up to about 1.1 µM and inactive = higher. Square brackets hold non-standard residues; d marks the D form. Peptide text beside a SMILES is read from it.
A correct response names exactly one class from 1.0 for active, 0.0 for inactive

-- ask Dear colleague, could you share the recorded outcome for COc1ccc(NC(C)=O)cc1N1C(=O)/C(=C\c2cccc(Oc3ccccc3)c2)SC1c1ccccc1 (stereo not given) when you have a moment?
-- reply 0.0

-- ask Dear colleague, could you share the recorded outcome for N=C(N)NCCC[C@H]1NC(=O)[C@@H](CCC(=O)O)NC(=O)[C@@H](CC(=O)O)NC(=O)[C@@H](CCC(=O)O)NC(=O)[C@H](Cc2c[nH]c3ccccc23)NC1=O (cyclo(W[dE][dD][dE][dR])) when you have a moment?
-- reply 0.0

-- ask Dear colleague, could you share the recorded outcome for COc1cc(C2c3cc4c(cc3OC(NCc3ccccc3)C2C)OCO4)cc(OC)c1OC (stereo not given) when you have a moment?
-- reply 1.0

-- ask Dear colleague, could you share the recorded outcome for COC(=O)C1C(C(=O)OC)C2C(=O)C3C(C(=O)OC)C(C(=O)OC)C3C(=O)C12 (stereo not given) when you have a moment?
-- reply 0.0

-- ask Dear colleague, could you share the recorded outcome for `CNC(=O)OCc1cnc([N+](=O)[O-])n1C` when you have a moment?
-- reply 0.0

* * *

Tested on: Hs-578T
TEST_METHOD_NOTES: NCI tumour cell line growth inhibition, 48 h
The source made the active and inactive calls. Cut-off read from the data, not from the text of the source: active = GI50 up to about 1.1 µM and inactive = higher.
VALUE_KIND: GI50

Cc1c(-c2cnccn2)ssc1=S    34.5 µM (inactive)
Cc1c(-c2nc(N)c(C#N)c(N)c2C#N)c(=O)oc2ccccc12    > 100 µM (inactive)
Cc1nc(N)nc(N)c1N1CCN(Cc2ccccc2)CC1    48 µM (inactive)
CCOC(=O)n1c2ccccc2c2c(O)c(OC)c3c(c21)C(=O)NC3=O    59.4 µM (inactive)
O=c1c(Nc2ccccc2)cn(CCOc2ccc(Cl)cc2)c(=O)n1CCOc1ccc(Cl)cc1    60 µM (inactive)
O=C(CN1C(=O)c2ccccc2C1=O)OCC1CCCN2CCCCC12 (configuration not stated)    > 100 µM (inactive)
CC(=O)/N=C1/N(/C=C2\C(=O)Oc3ccccc3C2=O)C(=O)/C(=C/c2ccccc2Cl)N1C    4.29 µM (inactive)
CCCCCCCCCC(=O)OCC1(CO)C/C(=C/CC(C(C)C)C(C)C)C(=O)O1 (configuration not stated)    27 µM (inactive)
CSc1[nH]nc(N)c1C(=O)Nc1ccccc1    > 100 µM (inactive)
c1ccc(-c2cnc3nc4ccccc4nc3n2)cc1    3.78 µM (inactive)

-- ask Fill blank: measured GI50 of the compound `CN(NC(=O)CCCl)C1=NCCN1` is ____.
-- reply > 100 µM (inactive)

-- ask Fill blank: measured GI50 of the compound Cc1cc(O)c(C(O)c2ccccn2)cc1O (configuration not stated) is ____.
-- reply 45.8 µM (inactive)

-- ask Fill blank: measured GI50 of the compound `O=C(/C=C/NC(=O)OCc1ccccc1)OCc1ccccc1` is ____.
-- reply > 100 µM (inactive)

* * *

Tested on: OVCAR-5
TEST_METHOD_NOTES: NCI tumour cell line growth inhibition, 48 h
The source made the active and inactive calls. No stated cut-off is given here; in the data, active = GI50 up to about 1.1 µM and inactive = higher. Where a SMILES comes first, the peptide text is derived from it. The star is where a group is joined. X33 = O=C(c1ccc(-c2ccc(Cl)cc2Cl)o1)*
A correct response names exactly one class from active, inactive

// known answers, use as guide
O=[N+]([O-])/C=C/c1cc2ccc3ccccc3c2[nH]1    inactive
CC12CC(=O)NN=C1c1ccccc1C2 (stereo not given)    inactive
O=C(c1ccccc1)C1OC12C(=O)Nc1c(Cl)cc(Cl)cc12 (stereo not given)    inactive
CC[C@@]1(O)C[C@H](OC2CC(N(C)C)C(O)C(C)O2)c2c(O)c3c(c(O)c2[C@H]1OC1CC(N(C)C)C(O)C(C)O1)C(=O)c1cccc(O)c1C3=O (stereo not given in full)    active
Nc1ccc(-c2ncc3cc(-c4cccc(-c5cc6cnc(-c7ccc(N)cc7)nc6c6ccccc56)c4)c4ccccc4c3n2)cc1    inactive

-- ask Dear colleague, could you share the recorded outcome for CCC(C)C(NC(=O)CNC(=O)C(Cc1ccccc1)NC(=O)C1CCCN1C(=O)c1ccc(-c2ccc(Cl)cc2Cl)o1)C(=O)OC (stereo not given) (X33-PFGI-OMe; configuration not given here) when you have a moment?
-- reply inactive

-- ask Dear colleague, could you share the recorded outcome for `O=[N+]([O-])c1ccc(C2=Nn3cnnc3SC2)o1` when you have a moment?
-- reply inactive

-- ask Dear colleague, could you share the recorded outcome for `O=C1c2c(ccc3c2CCC3)CC12Cc1cc3c(cc1C2)CCC3` when you have a moment?
-- reply inactive

-- ask Dear colleague, could you share the recorded outcome for NC(=O)CC(N)C(=O)NC(Cc1ccccc1)C(=O)NC(Cc1ccccc1)NC(=O)C(Cc1c[nH]c2ccccc12)C(=O)O (stereo not given) when you have a moment?
-- reply inactive

-- ask Dear colleague, could you share the recorded outcome for `O=[N+]([O-])c1ccc2nnnn2c1` when you have a moment?
-- reply inactive

* * *

System: A498
TEST_METHOD_NOTES: NCI tumour cell line growth inhibition, 48 h
The source made the active and inactive calls. Rule as the data show it: active = GI50 up to about 1.1 µM and inactive = higher.
A correct response names exactly one class from active, inactive

// known answers, use as guide
Nc1nc(N)c(Cn2ccnc2)c(O)n1    inactive
COC(=O)CCCC(=O)/C(=N\Nc1ccc(Cl)cc1)Nc1c(Cl)cccc1Cl    inactive
C[N+]12c3ccccc3O[B-]1(c1ccccc1)Oc1ccccc12 (stereo not drawn)    inactive

Switching to the query record.
-- ask Dear colleague, could you share the recorded outcome for `O=C1CCCN1C(=O)CS(=O)(=O)c1ccccc1` when you have a moment?
-- reply inactive

* * *

System: DU-145
TEST_METHOD_NOTES: NCI tumour cell line growth inhibition, 48 h
Activity calls are given as the source filed them. Cut-off read from the data, not from the text of the source: active = GI50 up to about 1.1 µM and inactive = higher. Square brackets hold non-standard residues; d marks the D form. Peptide text beside a SMILES is read from it.
A correct response names exactly one class from T (active), F (inactive)

C=CCC1C2CCC(O[Si](C(C)C)(C(C)C)C(C)C)(C(C(=O)OC)C2)C1O (stereo not given)    F
CC(C)[C@H](O)C(=O)N[C@H]1Cc2ccc3c(c2)[C@]24C5=C(N=C(O5)[C@H](C(C)C)NC1=O)c1nc(Cl)c(o1)-c1c(Cl)[nH]c5cccc(c15)-c1cccc2c1N[C@H]4O3    T
COc1ccc2nc(/C(N)=C\C#N)ccc2c1    F
N=C(N)NCCC[C@H]1NC(=O)[C@@H](CCC(=O)O)NC(=O)[C@@H](CC(=O)O)NC(=O)[C@@H](CCC(=O)O)NC(=O)[C@H](Cc2c[nH]c3ccccc23)NC1=O (cyclo(W[dE][dD][dE][dR]))    F
Cc1cc(C)c(C#N)c(SC(=S)NC(=O)c2ccc(Cl)cc2)n1    F
CC1CN(C)c2ccccc2N=C1NN (stereo not given)    F
C=CCC(C)C12CCNC(Cc3ccc(O)cc31)C2C (stereo not given)    F
COc1ccc2c3c(ccc2c1)NC(C(=O)O)CC3 (stereo not given)    F
O=C(Nc1cc2c(=O)oc3ccccc3c2oc1=O)c1cccnc1    F

Switching to the query record.
-- ask Dear colleague, could you share the recorded outcome for `O=c1cc(NCC2CCCCC2)[nH]c(=O)[nH]1` when you have a moment?
-- reply F

* * *

Parameter: GI50. Scope: all listed entries.
System: HOP-92
TEST_METHOD_NOTES: NCI tumour cell line growth inhibition, 48 h
The source made the active and inactive calls. No stated cut-off is given here; in the data, active = GI50 up to about 1.1 µM and inactive = higher.

O=C(CN1CCCCC1)Nc1ccc2sc3ccccc3c(=O)c2n1    15.1 µM (inactive)
CC(NC1=CC(=O)c2cccnc2C1=O)C(O)c1ccccc1 (stereo not given)    9.73 µM (inactive)
CC(=O)NC1=C(NC(C)(C)C)C(=O)c2ccccc2C1=O    19.1 µM (inactive)
CCCCCCCCCCCCCCCCCCNc1ccn(C2OC(COP(=O)(O)OCC3OC(n4cc(C)c(=O)[nH]c4=O)CC3F)C(O)C2O)c(=O)n1 (stereo not given)    18.4 µM (inactive)
Cn1nc2ccc3nccc(NCCNCCCl)c3c2n1    > 100 µM (inactive)

-- ask Fill blank: measured GI50 of the molecule `CCCCSCc1nc2nc(Cl)c(Cl)nc2[nH]1` is ____.
-- reply 24.5 µM (inactive)

-- ask Fill blank: measured GI50 of the molecule `Cc1cc(C)c(C#N)c(SC(=S)NC(=O)c2ccc(Cl)cc2)n1` is ____.
-- reply > 100 µM (inactive)

-- ask Fill blank: measured GI50 of the molecule Cc1cn(C2CC(O)C(COC(=O)NCCC(F)(F)C(F)(F)C(F)(F)C(F)(F)F)O2)c(=O)[nH]c1=O (stereo not given) is ____.
-- reply 54.6 µM (inactive)

-- ask Fill blank: measured GI50 of the molecule `O=[N+]([O-])/C=C/c1cc2ccc3ccccc3c2[nH]1` is ____.
-- reply 1.76 µM (inactive)

-- ask Fill blank: measured GI50 of the molecule `CC(C)[Si](OC1=C(C(=O)N(C)c2cccc(Cl)c2)CCCC1)(C(C)C)C(C)C` is ____.
-- reply 12.4 µM (inactive)
